Catalogue of cell growth effect as compared with that on the control values
- Tested on: murine HBKs (hair bulb keratinocytes)
- TEST_METHOD_NOTES: HBK growth test (Example 5, AlamarBlue)
- Assay type: cell-based, mouse
- EXPERIMENTAL_PARAMETERS: 30 μM, 4 days culture
Answer in %, number only, no unit symbol.

These solved cases illustrate the format of a correct answer.
MOLECULE	UNIT_NAME	REPORTED_VALUE
CC[C@H](C)[C@H](NC(=O)[C@@H]1CCCN1C(=O)CN)C(=O)NCC(=O)O (racemic)	%	134
CC[C@H](C)[C@H](NC(=O)[C@@H]1CCCN1)C(=O)NCC(=O)N[C@@H](CO)C(=O)O (racemic)	%	127
CC[C@H](C)[C@H](N)C(=O)NCC(=O)N[C@@H](CO)C(=O)O (racemic)	%	134

Then there is this molecule:
Query block: Fill in the blank: the reported cell growth effect as compared with that on the control of CC[C@H](C)[C@H](NC(=O)[C@@H]1CCCN1)C(=O)NCC(=O)O (racemic) is ____.
Result block: 131

###

- System: murine HBKs (hair bulb keratinocytes)
- TEST_METHOD_NOTES: HBK growth test (Example 5, AlamarBlue)
- Format: cell-based, mouse
- EXPERIMENTAL_PARAMETERS: 0.3 μM, 4 days culture
ENDPOINT_NAME: cell growth effect as compared with that on the control

COMPOUND	SUBJECT_OF_TEST	REPORTED_VALUE
CC[C@H](C)[C@H](N)C(=O)NCC(=O)N[C@@H](CO)C(=O)O (racemic)	murine HBKs (hair bulb keratinocytes)	98%
CC[C@H](C)[C@H](NC(=O)[C@@H]1CCCN1)C(=O)NCC(=O)O (racemic)	murine HBKs (hair bulb keratinocytes)	101%
CC[C@H](C)[C@H](NC(=O)[C@@H]1CCCN1)C(=O)NCC(=O)N[C@@H](CO)C(=O)O (racemic)	murine HBKs (hair bulb keratinocytes)	104%

Now look at this one.
Query block: # query: cell growth effect as compared with that on the control of entry CC[C@H](C)[C@H](NC(=O)[C@@H]1CCCN1C(=O)CN)C(=O)NCC(=O)O (racemic)
Result block: 105%

Reference source for all entries: patent US8304393B2
